Assign pKi to each entry below.
target: cloned human m4 muscarinic receptor (Homo sapiens, UniProt P08173); construct: expressed in transfected cells; host or cells: CHO cells, stably transfected (membranes); test: Muscarinic binding activity: inhibition of 3H-QNB binding, m4 (and m4 selectivity)
Sequence (P08173 whole entry): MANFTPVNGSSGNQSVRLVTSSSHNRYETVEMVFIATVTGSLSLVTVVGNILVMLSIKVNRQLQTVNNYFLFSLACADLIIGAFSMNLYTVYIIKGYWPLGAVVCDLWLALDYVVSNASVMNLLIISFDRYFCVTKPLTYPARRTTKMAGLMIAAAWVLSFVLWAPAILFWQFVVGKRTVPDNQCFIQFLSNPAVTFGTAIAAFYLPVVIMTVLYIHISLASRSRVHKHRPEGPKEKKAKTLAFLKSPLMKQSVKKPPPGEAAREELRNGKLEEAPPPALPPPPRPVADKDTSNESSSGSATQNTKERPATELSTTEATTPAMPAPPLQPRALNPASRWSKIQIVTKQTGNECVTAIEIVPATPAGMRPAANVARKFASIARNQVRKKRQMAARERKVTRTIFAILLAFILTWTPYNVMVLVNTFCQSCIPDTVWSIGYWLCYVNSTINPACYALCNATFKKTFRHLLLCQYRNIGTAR
Give bare numbers, as −log10 of the molar value.

Entry smiles: C=CCN(c1ccc(S(=O)(=O)c2ccc(OC)cc2)cc1)C1CCN(C2CCCCC2)CC1
Assayed target: cloned human m4 muscarinic receptor (Homo sapiens, UniProt P08173)
Value type: pKi
Quantitative readout: 8.00

Please find the next compound below.
Need pKi, item COc1ccc(S(=O)(=O)c2ccc(N(C)C3CCN(C4CCCCC4)CC3)cc2)cc1 7.30
